The reported numbers originate from PubChem BioAssay (NCI).

Experiment: NCI Yeast Anticancer Drug Screen. Data for the mec2-1 strain (AID 157)
Details: S. cerevisiae mec2-1 strain, at 50.0 µM, hits give high values
Protocol: Growth inhibition of yeast strains with defined genetic alterations is measured as a screen for potential anti-cancer activity. Selected strains with alterations in DNA damage repair or cell cycle control were exposed to compounds and growth inhibition was measured relative to vehicle treated controls. The strain used in this assay is mec2-1
Compounds without any hit were thinned out: in the full panel of roughly 79,000, 15% have a hit.
Reported growth inhibition values for the following molecules.
# unit: % | format: bare number

O=C(COc1ccc(Cl)cc1C(=O)O)NCc1cccc2ccccc12 : 36
NC(=O)C1(C(N)=O)CC1 : 4.55
CCOC(=O)C(=CNC(=S)c1cccnc1)C(=O)OCC : -37.7
CC1=C(c2ccco2)C(c2ccco2)OC1=O (stereo unspecified) : 27.2
O=C(O)C12C3CCC(C3)C1(C(=O)O)C1CCC2C1 (stereo unspecified) : -13.9

// switching to the query molecule
IN: I'd like to know its growth inhibition. The molecule in question is `COc1cc(OC)c(-c2cc(C(=O)O)c3cc4ccccc4cc3n2)c(OC)c1`
OUT: 23.2

* * *

Test: NCI Yeast Anticancer Drug Screen. Data for the mec2-1 strain (AID 157)
Conditions: S. cerevisiae mec2-1 strain, at 50.0 µM
Protocol: Growth inhibition of yeast strains with defined genetic alterations is measured as a screen for potential anti-cancer activity. Selected strains with alterations in DNA damage repair or cell cycle control were exposed to compounds and growth inhibition was measured relative to vehicle treated controls. The strain used in this assay is mec2-1
About 79,000 compounds went through this panel and 15% of them were active in at least one assay; those are over-represented in the sample as a whole. Activity calls are given as the source filed them. Rule as the data show it: active = growth inhibition above about 70%; inactive = the rest.
Thanks in advance; please answer with one of these: active, inactive

CC(=O)Nc1ccc(S(=O)(=O)Oc2noc3ccccc23)cc1 : inactive
O=C(/C=C/c1ccccc1)OCCCl : inactive
CCCS(=O)(=O)N1CCC(C)CC1 : inactive
Cc1ccc(NS(=O)(=O)c2ccc(F)cc2)cc1Cl : active
CCc1cc2c(cc1/C(C)=N/N=C(\C)c1cc3c(cc1CC)C(C)(C)CCC3(C)C)C(C)(C)CCC2(C)C : inactive

IN: Could you check what this test reported for `OC(Cc1cccc(=S)[nH]1)(c1ccccc1)c1ccccc1` ?
OUT: inactive

IN: Could you check what this test reported for `Nc1[nH]c(=S)[nH]c(=O)c1N=Nc1c(Br)cc(S(N)(=O)=O)cc1Br` ?
OUT: inactive

IN: Could you check what this test reported for CN(C)CC(/C(Cc1ccccc1)=N\NC(=S)NN)c1ccccc1 (stereo not given) ?
OUT: inactive

IN: Could you check what this test reported for `Nc1cccc(-c2nc3ncnc(N)c3[nH]2)c1` ?
OUT: inactive

IN: Could you check what this test reported for CNC(=O)NC1C(O)COC(OC)C1O (stereo not given) ?
OUT: inactive

IN: Could you check what this test reported for `NC(=O)NNC(=O)NC12CC3CC(CC(C3)C1)C2` ?
OUT: inactive

IN: Could you check what this test reported for `CC(C)CC(=O)CC(=O)C(C)(C)C.CC(C)CC(=O)CC(=O)C(C)(C)C.CC(C)CC(=O)CC(=O)C(C)(C)C.CC(C)CC(=O)CC(=O)C(C)(C)C.[Ce]` ?
OUT: inactive

IN: Could you check what this test reported for `Cc1nc(Cl)c(C)c(Cl)n1` ?
OUT: inactive
